Kindly supply the reported folding enthalpy values for the records listed here.
assay: folding enthalpy; higher = less favourable; fluorescence melt of hairpins on a sequencing array, two-state fit; settings: sodium 0.088 M
Hi! Could you send only the number? It should be in kcal/mol, unit omitted.

Query: Given the entry GAGCACGCGAAAGCGCTC (((..(((....)))))) , report its measured folding enthalpy.
Reply: -12.8

Query: For GATCTTCAGAAGATC ((((((...)))))) , what is its reported folding enthalpy?
Reply: -35.9

Query: Recorded folding enthalpy for GCGGCAGACCGC ((((....)))) , please?
Reply: -23.2

Query: Suppose we examine the sequence GTTTTCACGAAAGTGAAC (((..(((....)))))) ; what folding enthalpy value has been reported?
Reply: -10.3

Query: Which folding enthalpy value is on record for GGGGCCGAAAGGCATCCC ((((((....)))..))) ?
Reply: -13.9

Query: Which folding enthalpy value belongs to GGGGGCGAAAGCCAGCCC ((((((....)))..))) ?
Reply: -14.1
